The measurements presented in this section are drawn from patent US4956171A.

Assay info: In vitro flux of drug from saturated test solutions through human cadaver skin into an infinite sink, Franz diffusion cell
Assay type: in vitro ADME
Applied conditions: Table 4; saturated in 48 wt. % sucrose cocoate aqueous solution
Quantity kind: Flux, Solution B (μg/cm^2 /day)
Enter your answer as a number in μg/cm^2 /day; do not include the unit.

Q: Dear colleague, I am looking for the recorded Flux, Solution B of the following compound: CC(C)Cc1ccc(C(C)C(=O)O)cc1 (stereo not shown)
Result: 547

Q: Dear colleague, I am looking for the recorded Flux, Solution B of the following compound: C[C@]12CC[C@@H]3c4ccc(O)cc4CC[C@H]3[C@@H]1CC[C@@H]2O
Result: 7.4

Q: Dear colleague, I am looking for the recorded Flux, Solution B of the following compound: COC(=O)C1=C(C)NC(C)=C(C(=O)OC)C1c1ccccc1[N+](=O)[O-]
Result: 14

Q: Dear colleague, I am looking for the recorded Flux, Solution B of the following compound: C[C@]12C=CC(=O)C=C1CC[C@@H]1[C@@H]2[C@@H](O)C[C@@]2(C)[C@H]1CC[C@]2(O)C(=O)CO
Result: 8
